# Test system: RARb homodimer (NR concentration 270 nM)
# method summary: PBM binding z-score (relative to random genomic background probes); higher = stronger binding; sequences stand for … in GC…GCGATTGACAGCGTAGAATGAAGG
Use class 1 when the recorded PBM binding z-score is no lower than 3; use class 0 when it is lower.

// below: answered sequences
ACTAGCAGGCGAAGTTTGGGTCACTCAAACAAAG    class 0
GCTAGTTGGTCAGTATAAGGTCACACACCGGTCG    class 1
TCTCGTAGATCAACAGGAGGTTAAGAAAGATCGA    class 0
CCTATTAGTTGACTATAAGGGCAACCGAAGCTCG    class 0

With those in mind, consider the next sequence.
I'd appreciate it if you could say whether TCTAGTTGGTCACGGAGATCACACACGACGGGTA has PBM binding z-score at least equal to 3.
class 0

* * *

Reported PBM binding z-score by item:
# System: LXRa homodimer (NR concentration 270 nM)
# method summary: PBM binding z-score (relative to random genomic background probes); higher = stronger binding; sequences stand for … in GC…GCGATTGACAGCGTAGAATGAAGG
Note: the reply should be a number with no unit written.

Given the entry ATCTCTAGGTAACAAGTTCAGAGAAAGAGAGGAC , report its measured PBM binding z-score.
0.71

Given the entry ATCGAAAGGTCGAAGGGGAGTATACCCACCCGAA , report its measured PBM binding z-score.
0.303

Given the entry CAAACTATGTCAAGGTCAAAGTCGGTTTGTGCCA , report its measured PBM binding z-score.
4.54

* * *

# Test system: VDR:RXRa (NR concentration 270 nM, RXRa partner concentration 90 nM)
# method summary: PBM binding z-score (relative to random genomic background probes); higher = stronger binding; sequences stand for … in GC…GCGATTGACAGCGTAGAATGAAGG
assay readout: PBM binding z-score
Note: the reply should be a number with no unit written.

Take a look at these entries with their results.
ATACCAAGGCGATCGTGAGGTCGTTGATACTAAC    1.51
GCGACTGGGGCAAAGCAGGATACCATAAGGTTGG    -0.613

Now turn to the next sequence.
Given the entry CAAACTATGTCACAGAGGTCAAAGTCCGTGCGTA , report its measured PBM binding z-score.
6.63

* * *

Reported PBM binding z-score by item:
# System: PPARg:RXRa DBDmut IVT, anti-RXR (DBD mutation: RXRa K156A/R161A, NR concentration 270 nM, RXRa partner concentration 90 nM)
# method summary: PBM binding z-score (relative to random genomic background probes); higher = stronger binding; sequences stand for … in GC…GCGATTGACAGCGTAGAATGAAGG
Note: the reply should be a number with no unit written.

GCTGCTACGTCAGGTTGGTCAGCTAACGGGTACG    -0.264
ATATGCAGGTTAGCTGGGGTCATTCAGACTAGGC    2.79
ATGCCAAGGTGATCGTGAGGTCGTTGATACTAAC    0.413
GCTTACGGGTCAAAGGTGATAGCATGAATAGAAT    5.42
CAAACTAGGTCACAGAAGTCAAAGTCCGTGCGTA    8.28
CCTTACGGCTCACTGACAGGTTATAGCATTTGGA    0.701
TCTAGCAGGCCGGAGGGTCACTCAAGAGGTACGG    0.524
TCATGTAGATCAGCAGGTTAAGAAAGCTGGCCAA    1.87

Given the entry CCGACTGGGGCAGAAAGGTTACCATTCCATCCGG , report its measured PBM binding z-score.
1.94

Given the entry AATATTAGTTGACTTAGGGCAACCGATACGACGC , report its measured PBM binding z-score.
0.114

Given the entry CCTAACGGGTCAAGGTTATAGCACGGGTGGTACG , report its measured PBM binding z-score.
0.873
